Reported Kd is given for each of the following binders.
target: T1, histidine-tagged human Siglec-7 (NovoProtein) (human, UniProt Q9Y286 19-353); test: BLI, antibody captured
T1 construct: Bought protein; also called recombinant human Siglec-7; recombinant Siglec-7; not shown: histidine tag
T1 sequence (Q9Y286 19-353 limits assumed): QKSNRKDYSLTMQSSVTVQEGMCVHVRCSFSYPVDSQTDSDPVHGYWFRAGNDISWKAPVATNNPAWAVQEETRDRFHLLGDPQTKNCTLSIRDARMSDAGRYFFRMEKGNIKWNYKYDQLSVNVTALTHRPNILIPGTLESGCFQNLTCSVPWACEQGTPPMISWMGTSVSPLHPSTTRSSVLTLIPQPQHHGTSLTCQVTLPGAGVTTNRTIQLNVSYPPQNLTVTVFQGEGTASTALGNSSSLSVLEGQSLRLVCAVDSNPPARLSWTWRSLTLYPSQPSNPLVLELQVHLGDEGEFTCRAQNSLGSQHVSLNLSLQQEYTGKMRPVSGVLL
reported-endpoint: Kd (nM)

* S7AB-H8.25 (antibody, V domains shown) VH: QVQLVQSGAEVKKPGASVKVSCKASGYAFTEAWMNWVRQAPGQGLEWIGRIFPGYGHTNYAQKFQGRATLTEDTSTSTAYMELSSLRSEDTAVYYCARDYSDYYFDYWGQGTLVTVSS VL: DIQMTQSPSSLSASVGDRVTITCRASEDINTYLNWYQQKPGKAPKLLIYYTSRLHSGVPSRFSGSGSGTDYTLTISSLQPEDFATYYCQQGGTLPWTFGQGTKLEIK | 0.265
* S7AB-H8.10 (antibody, V domains shown) VH: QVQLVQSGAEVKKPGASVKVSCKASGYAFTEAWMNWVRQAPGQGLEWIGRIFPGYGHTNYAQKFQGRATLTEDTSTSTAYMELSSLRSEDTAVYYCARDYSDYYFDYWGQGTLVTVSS VL: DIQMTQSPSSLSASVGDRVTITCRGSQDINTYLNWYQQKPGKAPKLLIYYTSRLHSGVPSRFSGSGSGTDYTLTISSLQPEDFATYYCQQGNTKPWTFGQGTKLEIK | 1.62
* S7AB-H8.29 (antibody, V domains shown) VH: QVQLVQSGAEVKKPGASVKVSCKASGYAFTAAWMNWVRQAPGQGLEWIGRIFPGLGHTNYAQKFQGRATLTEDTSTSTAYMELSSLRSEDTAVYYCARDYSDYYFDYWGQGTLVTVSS VL: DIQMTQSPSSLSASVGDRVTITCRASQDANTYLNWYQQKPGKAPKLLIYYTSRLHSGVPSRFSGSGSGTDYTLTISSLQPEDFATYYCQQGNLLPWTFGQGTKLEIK | 0.263
